Give MIC for every item shown.
System: Escherichia coli ATCC BAA-2523
Format: cell-based
Conditions: ATCC BAA-2523
Experimental: The minimal inhibitory concentration (MIC) was determined by the broth microdilution method according to the recommended procedures of the Clinical and Laboratory Standards Institute (CLSI). An appropriate amount of the cyclic lipopeptide compounds prepared in Examples 1-120 and the reference standards were weighed and dissolved in sterile pure water. […]
Bridge positions count the residues as written; N and C are the ends. Square brackets hold non-standard residues; d marks the D form. Peptide text beside a SMILES is read from it. * marks the point of attachment. Heptanoyl(6-Me) = CC(C)CCCCC(=O)*; Sulfomethyl = O=S(=O)(O)C*; dOrn = NCCC[C@@H](N)C(=O)O; Heptanoyl = CCCCCCC(=O)*; Octanoyl = CCCCCCCC(=O)*; Orn = NCCC[C@H](N)C(=O)O; Dab = NCC[C@H](N)C(=O)O; Dap = NC[C@H](N)C(=O)O
Numbers only, in µg/mL.

[[record]]
compound = "CC(C)CCCCC(=O)N[C@@H](CCN)C(=O)N[C@H](C(=O)N[C@H](CO)C(=O)N[C@H]1CCNC(=O)[C@H]([C@@H](C)O)NC(=O)[C@H](CCN)NC(=O)[C@H](CCN)NC(=O)[C@H]([C@@H](C)O)NC(=O)[C@@H](Cc2ccccc2)NC(=O)[C@H](CN)NC1=O)[C@@H](C)O [Compound 62] ({Heptanoyl(6-Me)}-[Dab]T[dS][Dab][Dap][dF]T[Dab][Dab]T; lactam 4-C)"
obs_value = 0.06

[[record]]
compound = "CC(C)CCCCC(=O)N[C@@H](CCN)C(=O)N[C@H](C(=O)N[C@H](CO)C(=O)N[C@H]1CCNC(=O)[C@H]([C@@H](C)O)NC(=O)[C@H](CCN)NC(=O)[C@H](CCN)NC(=O)[C@H]([C@@H](C)O)NC(=O)[C@@H](Cc2ccccc2)NC(=O)[C@H](CCN)NC1=O)[C@@H](C)OCS(=O)(=O)O [Compound 104] ({Heptanoyl(6-Me)}-[Dab]T(Sulfomethyl)[dS][Dab][Dab][dF]T[Dab][Dab]T; lactam 4-C)"
obs_value = 0.03

[[record]]
compound = "CCCCCCCC(=O)N[C@@H](CCN)C(=O)N[C@H](C(=O)N[C@H](CO)C(=O)N[C@H]1CCNC(=O)[C@H]([C@@H](C)O)NC(=O)[C@H](CCCN)NC(=O)[C@H](CCN)NC(=O)[C@H]([C@@H](C)O)NC(=O)[C@@H](Cc2ccccc2)NC(=O)[C@H](CCN)NC1=O)[C@@H](C)O [Compound 88] (Octanoyl-[Dab]T[dS][Dab][Dab][dF]T[Dab][Orn]T; lactam 4-C)"
obs_value = 0.03

[[record]]
compound = "CC(C)CCCCC(=O)N[C@@H](CCN)C(=O)N[C@H](C(=O)N[C@H](CCCN)C(=O)N[C@H]1CCNC(=O)[C@H]([C@@H](C)O)NC(=O)[C@H](CCN)NC(=O)[C@H](CCN)NC(=O)[C@H](CC(C)C)NC(=O)[C@@H](Cc2ccccc2)NC(=O)[C@H](CCN)NC1=O)[C@@H](C)O [Compound 42] ({Heptanoyl(6-Me)}-[Dab]T[dOrn][Dab][Dab][dF]L[Dab][Dab]T; lactam 4-C)"
obs_value = 0.03


Would you kindly look at the next entry?
Recorded MIC (compound CCCCCCC(=O)N[C@@H](CN)C(=O)N[C@H](C(=O)N[C@H](CO)C(=O)N[C@H]1CCNC(=O)[C@H]([C@@H](C)O)NC(=O)[C@H](CCN)NC(=O)[C@H](CCN)NC(=O)[C@H]([C@@H](C)O)NC(=O)[C@@H](Cc2ccccc2)NC(=O)[C@H](CCN)NC1=O)[C@@H](C)O [Compound 54] (Heptanoyl-[Dap]T[dS][Dab][Dab][dF]T[Dab][Dab]T; lactam 4-C) ): 0.03

---

System: Klebsiella pneumoniae KPN+19-15
Assay type: cell-based
Details: KPN+19-15
Numbered stars: 1 amine (or outer) side, 2 acyl side, 3 side chain; on linkers, the order of the positions; unused ones are H or OH. Bridge positions count the residues as written; N and C are the ends. Square brackets hold non-standard residues; d marks the D form. Peptide text beside a SMILES is read from it. * marks the point of attachment. X3 = O=C([C@@H](Cc1ccc(CS(=O)(=O)O)cc1)N[*:1])[*:2]; Heptanoyl(6-Me) = CC(C)CCCCC(=O)*; Nonanoyl = CCCCCCCCC(=O)*; dDab = NCC[C@@H](N)C(=O)O; Heptanoyl = CCCCCCC(=O)*; Octanoyl = CCCCCCCC(=O)*; Orn = NCCC[C@H](N)C(=O)O; Dab = NCC[C@H](N)C(=O)O; Dap = NC[C@H](N)C(=O)O
Please provide measured MIC for the entries that follow.
Numbers only, in µg/mL.

Here's what some known entries look like.
[[record]]
compound = "CCCCCCC(=O)N[C@@H](CCN)C(=O)N[C@H](C(=O)N[C@H](CO)C(=O)N[C@H]1CCNC(=O)[C@H]([C@@H](C)O)NC(=O)[C@H](CCCN)NC(=O)[C@H](CCN)NC(=O)[C@H]([C@@H](C)O)NC(=O)[C@@H](Cc2ccccc2)NC(=O)[C@H](CCN)NC1=O)[C@@H](C)O [Compound 89] (Heptanoyl-[Dab]T[dS][Dab][Dab][dF]T[Dab][Orn]T; lactam 4-C)"
obs_value = 0.5

[[record]]
compound = "CC(C)CCCCC(=O)N[C@@H](CCN)C(=O)N[C@H](C(=O)N[C@@H](CN)C(=O)N[C@H]1CCNC(=O)[C@H]([C@@H](C)O)NC(=O)[C@H](CCN)NC(=O)[C@H](CCN)NC(=O)[C@H]([C@@H](C)O)NC(=O)[C@@H](Cc2ccc(CS(=O)(=O)O)cc2)NC(=O)[C@H](CCN)NC1=O)[C@@H](C)O [Compound 116] ({Heptanoyl(6-Me)}-[Dab]T[Dap][Dab][Dab][X3]T[Dab][Dab]T; lactam 4-C)"
obs_value = 0.125

[[record]]
compound = "CCCCCCCC(=O)N[C@@H](CN)C(=O)N[C@H](C(=O)N[C@H](CCN)C(=O)N[C@H]1CCNC(=O)[C@H]([C@@H](C)O)NC(=O)[C@H](CCN)NC(=O)[C@H](CCN)NC(=O)[C@H](CC(C)C)NC(=O)[C@@H](CC(C)C)NC(=O)[C@H](CCN)NC1=O)[C@@H](C)O [Compound 98] (Octanoyl-[Dap]T[dDab][Dab][Dab][dL]L[Dab][Dab]T; lactam 4-C)"
obs_value = 0.03


Proceed to the following item.
Data point: CCCCCCCCC(=O)N[C@@H](CN)C(=O)N[C@H](C(=O)N[C@H](CO)C(=O)N[C@H]1CCNC(=O)[C@H]([C@@H](C)O)NC(=O)[C@H](CCN)NC(=O)[C@H](CCN)NC(=O)[C@H]([C@@H](C)O)NC(=O)[C@@H](Cc2ccccc2)NC(=O)[C@H](CCN)NC1=O)[C@@H](C)O [Compound 55] (Nonanoyl-[Dap]T[dS][Dab][Dab][dF]T[Dab][Dab]T; lactam 4-C) ; MIC = 0.5

---

System: Acinetobacter baumannii ABA19-1
Type: cell-based
Settings: ABA19-1
Numbered stars: 1 amine (or outer) side, 2 acyl side, 3 side chain; on linkers, the order of the positions; unused ones are H or OH. Bridge positions count the residues as written; N and C are the ends. Square brackets hold non-standard residues; d marks the D form. Peptide text beside a SMILES is read from it. * marks the point of attachment. X2 = O=C([C@H](CNCS(=O)(=O)O)N[*:1])[*:2]; Heptanoyl(6-Me) = CC(C)CCCCC(=O)*; dOrn = NCCC[C@@H](N)C(=O)O; Nonanoyl = CCCCCCCCC(=O)*; dDab = NCC[C@@H](N)C(=O)O; Heptanoyl = CCCCCCC(=O)*; Octanoyl = CCCCCCCC(=O)*; Orn = NCCC[C@H](N)C(=O)O; dDap = NC[C@@H](N)C(=O)O; Dab = NCC[C@H](N)C(=O)O; Dap = NC[C@H](N)C(=O)O
Give MIC for every item shown.
Answers are plain numbers, in µg/mL.

Give me MIC for each of these compounds, listed below.
1. CCCCCCCC(=O)N[C@@H](CCN)C(=O)N[C@H](C(=O)N[C@@H](CCCN)C(=O)N[C@H]1CCNC(=O)[C@H]([C@@H](C)O)NC(=O)[C@H](CCN)NC(=O)[C@H](CCN)NC(=O)[C@H]([C@@H](C)O)NC(=O)[C@@H](Cc2ccccc2)NC(=O)[C@H](CCN)NC1=O)[C@@H](C)O [Compound 28] (Octanoyl-[Dab]T[Orn][Dab][Dab][dF]T[Dab][Dab]T; lactam 4-C)
2. CCCCCCC(=O)N[C@@H](CCN)C(=O)N[C@H](C(=O)N[C@H](CO)C(=O)N[C@H]1CCNC(=O)[C@H]([C@@H](C)O)NC(=O)[C@H](CCCN)NC(=O)[C@H](CCN)NC(=O)[C@H]([C@@H](C)O)NC(=O)[C@@H](Cc2ccccc2)NC(=O)[C@H](CCN)NC1=O)[C@@H](C)O [Compound 89] (Heptanoyl-[Dab]T[dS][Dab][Dab][dF]T[Dab][Orn]T; lactam 4-C)
3. CCCCCCC(=O)N[C@@H](CCN)C(=O)N[C@H](C(=O)N[C@H](CCCN)C(=O)N[C@H]1CCNC(=O)[C@H]([C@@H](C)O)NC(=O)[C@H](CCN)NC(=O)[C@H](CCN)NC(=O)[C@H]([C@@H](C)O)NC(=O)[C@@H](Cc2ccccc2)NC(=O)[C@H](CCN)NC1=O)[C@@H](C)O [Compound 24] (Heptanoyl-[Dab]T[dOrn][Dab][Dab][dF]T[Dab][Dab]T; lactam 4-C)
4. CC(C)CCCCC(=O)N[C@@H](CCN)C(=O)N[C@H](C(=O)N[C@@H](CCN)C(=O)N[C@H]1CCNC(=O)[C@H]([C@@H](C)O)NC(=O)[C@H](CCN)NC(=O)[C@H](CCN)NC(=O)[C@H]([C@@H](C)O)NC(=O)[C@@H](Cc2ccccc2)NC(=O)[C@H](CCN)NC1=O)[C@@H](C)O [Compound 17] ({Heptanoyl(6-Me)}-[Dab]T[Dab][Dab][Dab][dF]T[Dab][Dab]T; lactam 4-C)

1. 0.125
2. 0.06
3. 0.125
4. 0.5

Your task in this section: give MIC for each listed record.
1. CCCCCCCC(=O)N[C@@H](CN)C(=O)N[C@H](C(=O)N[C@H](CCN)C(=O)N[C@H]1CCNC(=O)[C@H]([C@@H](C)O)NC(=O)[C@H](CCN)NC(=O)[C@H](CCN)NC(=O)[C@H](CC(C)C)NC(=O)[C@@H](CC(C)C)NC(=O)[C@H](CCN)NC1=O)[C@@H](C)O [Compound 98] (Octanoyl-[Dap]T[dDab][Dab][Dab][dL]L[Dab][Dab]T; lactam 4-C)
2. CCCCCCCCC(=O)N[C@@H](CCN)C(=O)N[C@H](C(=O)N[C@H](CO)C(=O)N[C@H]1CCNC(=O)[C@H]([C@@H](C)O)NC(=O)[C@H](CN)NC(=O)[C@H](CCN)NC(=O)[C@H]([C@@H](C)O)NC(=O)[C@@H](Cc2ccccc2)NC(=O)[C@H](CCN)NC1=O)[C@@H](C)O [Compound 85] (Nonanoyl-[Dab]T[dS][Dab][Dab][dF]T[Dab][Dap]T; lactam 4-C)
3. CC(C)CCCCC(=O)N[C@@H](CCN)C(=O)N[C@H](C(=O)N[C@H](CCCN)C(=O)N[C@H]1CCNC(=O)[C@H]([C@@H](C)O)NC(=O)[C@H](CCN)NC(=O)[C@H](CCN)NC(=O)[C@H]([C@@H](C)O)NC(=O)[C@@H](Cc2ccccc2)NC(=O)[C@H](CCN)NC1=O)[C@@H](C)O [Compound 22] ({Heptanoyl(6-Me)}-[Dab]T[dOrn][Dab][Dab][dF]T[Dab][Dab]T; lactam 4-C)
4. CCCCCCCC(=O)N[C@@H](CCN)C(=O)N[C@H](C(=O)N[C@H](CO)C(=O)N[C@H]1CCNC(=O)[C@H]([C@@H](C)O)NC(=O)[C@H](CCN)NC(=O)[C@H](CN)NC(=O)[C@H]([C@@H](C)O)NC(=O)[C@@H](Cc2ccccc2)NC(=O)[C@H](CCN)NC1=O)[C@@H](C)O [Compound 73] (Octanoyl-[Dab]T[dS][Dab][Dab][dF]T[Dap][Dab]T; lactam 4-C)
5. CC(C)CCCCC(=O)N[C@@H](CCN)C(=O)N[C@H](C(=O)N[C@@H](CNCS(=O)(=O)O)C(=O)N[C@H]1CCNC(=O)[C@H]([C@@H](C)O)NC(=O)[C@H](CCN)NC(=O)[C@H](CCN)NC(=O)[C@H]([C@@H](C)O)NC(=O)[C@@H](Cc2ccccc2)NC(=O)[C@H](CCN)NC1=O)[C@@H](C)O [Compound 112] ({Heptanoyl(6-Me)}-[Dab]T[X2][Dab][Dab][dF]T[Dab][Dab]T; lactam 4-C)
6. CC(C)CCCCC(=O)N[C@@H](CCN)C(=O)N[C@H](C(=O)N[C@H](CN)C(=O)N[C@H]1CCNC(=O)[C@H]([C@@H](C)O)NC(=O)[C@H](CCN)NC(=O)[C@H](CCN)NC(=O)[C@H](CC(C)C)NC(=O)[C@@H](Cc2ccccc2)NC(=O)[C@H](CCN)NC1=O)[C@@H](C)O [Compound 32] ({Heptanoyl(6-Me)}-[Dab]T[dDap][Dab][Dab][dF]L[Dab][Dab]T; lactam 4-C)

[0.03, 0.06, 0.125, 0.06, 0.06, 0.03]
